Listing of recorded GI50 by entry.
- Test system: SK-MEL-28
- Assay procedure: NCI tumour cell line growth inhibition, 48 h
Activity calls are given as the source filed them. No stated cut-off is given here; in the data, active = GI50 up to about 1.1 µM and inactive = higher.

Completed entries (count: 7):
CCCCC(C(=O)CCC(=O)Nc1ccc(Cl)cc1)C(=O)C(C)C (stereo not drawn) ... > 100 µM (inactive)
O=S1(=O)OCCOS(=O)(=O)C1I ... > 100 µM (inactive)
Cn1c2ccccc2c(=O)c2c(O)cc3c(c21)C=CC(C)(C)O3 ... > 25 µM (inactive)
COc1ccc(CCN2CCc3c(C)c(C#N)c4nc5ccccc5n4c32)cc1OC ... 39.5 µM (inactive)
O=C1C2Nc3ccccc3SC2C(=O)N1c1ccc(Br)cc1 (stereo not drawn) ... 62.2 µM (inactive)
CC(C)c1ccc(C(c2ccc(OCC(=O)O)cc2)c2ccc(C(C)C)cc(=O)c2O)c(O)c(=O)c1 ... 4.81 µM (inactive)
CC(=O)OC(C(=O)NNC(=O)OC(C)(C)C)c1ccccc1 (stereo not drawn) ... > 100 µM (inactive)

Measured on SK-MEL-28, COc1cc2c[n+]3ccc4cc(OC)c(OC)cc4c3cc2cc1O has a documented GI50 of > 100 µM (inactive)

---

Consider the following GI50 values measured on HCT-15.

These recorded examples may help you get a feel for the data.
Cc1ccc(S(=O)(=O)NC(=O)NC(Cc2ccccc2)C(=O)O)cc1 (stereo not drawn) ... > 100 µM
COc1ccc(/N=C(/C[S+]([O-])c2ccc(C)cc2)C(F)(F)F)cc1 (stereo not drawn) ... > 100 µM

Alright, here's another compound for you.
Form field GI50 for item CCOC(=O)C(CC#Cc1ccc(C#CCC(NC(C)=O)C(=O)OCC)cc1)NC(C)=O (stereo not drawn) on HCT-15: > 100 µM

---

- Tested on: TK-10
- Assay procedure: NCI tumour cell line growth inhibition, 48 h
Activity calls are given as the source filed them. Cut-off read from the data, not from the text of the source: active = GI50 up to about 1.1 µM and inactive = higher.
Reported GI50 by item:

CC1=C2C(=C[C@H]3[C@]4(C)CCCC(C)(C)[C@H]4CC[C@]34O[C@H]24)OC1=O ... > 100 µM (inactive)

For the next question, use this compound.
So for Cc1cc(O)c2c(c1)C(O)(c1ccc3c(c1O)C(=O)c1c(O)cc(C)cc1C3(O)C1OC(CO)C(O)C(O)C1O)c1cccc(O)c1C2=O (stereo not drawn) , the logged GI50 turned out to be 14.1 µM (inactive)

---

- Tested on: SF-295
- Assay procedure: NCI tumour cell line growth inhibition, 48 h
Calls of active or inactive are those of the source. Rule as the data show it: active = GI50 up to about 1.1 µM and inactive = higher.
Valid outcomes are listed here; reply with one: active, inactive

Consider the following illustrative entries.
O=C1c2ccc3c4ccc5c6c(ccc(c7ccc(c2c37)C(=O)N1CCN1CCCCC1)c64)C(=O)N(CCN1CCCCC1)C5=O ... inactive
CC1=CC(=O)/C(=C/NC(=S)Nc2ccc(S(N)(=O)=O)cc2)C(=O)O1 ... inactive
CSc1nc2c(c(=O)[nH]1)N=C(c1ccc([N+](=O)[O-])cc1)CC(c1ccccc1)N2 (stereo not drawn) ... inactive

Per the assay record, what outcome was assigned to Cc1nnc2cc(C(=O)O)c3ccccc3n2c1=O ? inactive

Outcome? N#CC(/C(=N\NC(N)=S)C(=O)NC1C2CC3CC(C2)CC1C3)c1ccc(Cl)cc1 (stereo not drawn) inactive

Call for entry Nc1ccn(C=C=CCO)c(=O)n1 : inactive

Hi, do you know how O=C1OC(c2ccccc2)C2CC3CC4(CCC3CN12)OCCO4 (stereo not drawn) came out in this test? inactive
